target-or-system: full-length beta-Catenin (Uniprot ID P35222) (Homo sapiens (Human)) (UniProt P35222)
Sequence (P35222 2-781 limits assumed): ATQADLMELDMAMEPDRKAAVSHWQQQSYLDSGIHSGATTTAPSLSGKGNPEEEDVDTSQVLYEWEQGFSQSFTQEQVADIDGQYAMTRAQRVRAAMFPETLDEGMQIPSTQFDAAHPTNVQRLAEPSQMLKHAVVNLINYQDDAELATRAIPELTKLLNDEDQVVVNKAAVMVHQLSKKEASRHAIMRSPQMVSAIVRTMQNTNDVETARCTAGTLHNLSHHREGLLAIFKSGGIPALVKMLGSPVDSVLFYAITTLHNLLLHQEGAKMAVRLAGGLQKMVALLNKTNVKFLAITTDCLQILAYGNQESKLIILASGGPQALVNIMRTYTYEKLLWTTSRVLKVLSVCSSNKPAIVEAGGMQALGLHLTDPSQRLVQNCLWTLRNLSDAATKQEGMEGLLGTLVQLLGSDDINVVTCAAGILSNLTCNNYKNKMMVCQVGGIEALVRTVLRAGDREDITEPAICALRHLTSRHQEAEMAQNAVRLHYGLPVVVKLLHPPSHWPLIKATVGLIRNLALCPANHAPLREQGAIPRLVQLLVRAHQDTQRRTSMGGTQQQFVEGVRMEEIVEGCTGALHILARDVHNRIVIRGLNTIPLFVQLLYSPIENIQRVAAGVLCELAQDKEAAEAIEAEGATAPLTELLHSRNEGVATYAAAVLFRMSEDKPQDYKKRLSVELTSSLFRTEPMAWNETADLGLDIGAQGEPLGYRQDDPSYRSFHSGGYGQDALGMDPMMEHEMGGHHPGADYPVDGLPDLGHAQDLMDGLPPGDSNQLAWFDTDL
assay-text: fluorescence polarization competition, 5FAM-TCF4 10-53 probe on full-length beta-catenin
Starred links: 1 amine or outer side, 2 acyl side, 3 side chain; linkers in the order of their positions; H or OH if unused. Positions of bridges follow the written chain, without caps; N, C: chain ends. Non-standard residues stand in square brackets, D forms with d. Primed or numbered codes have the meaning given here. PyrS2″ = (S)-3-amino-1-((pent-4-en-1-yloxy)carbonyl)pyrrolidine-3-carboxylic acid (stapling residue), C=CCCCOC(=O)N1CC[C@@](N[*:1])(C(=O)[*:2])C1; B5(4) = 2,2-bis(4-pentenyl)glycine = 2-amino-2-(pent-4-en-1-yl)hept-6-enoic acid (stitching residue), C=CCCCC(CCCC=C)(N[*:1])C(=O)[*:2]; B5(3) = 2,2-bis(4-pentenyl)glycine (stitching residue), C=CCCCC(CCCC=C)(N[*:1])C(=O)[*:2]; Phe(3-CF3) = N[C@@H](Cc1cccc(C(F)(F)F)c1)C(=O)O; Phe(3-OMe) = COc1cccc(C[C@H](N)C(=O)O)c1; Phe(2-Cl) = N[C@@H](Cc1ccccc1Cl)C(=O)O; Bta = N[C@@H](Cc1csc2ccccc12)C(=O)O; αAllylPro = C=CC[C@@]1(C(=O)O)CCCN1; Cha = N[C@@H](CC1CCCCC1)C(=O)O
Task for the reader: assign each of the following binders its reported EC50.
Lab note: write values as number then unit, every time.

Given item Ac-[αAllylPro]D[Cha][B5(3)]DDAA[Phe(3-CF3)]S[PyrS2″]F[Bta]Q-NH2 (staple 1-4, 4-11) [I-1125] , the value recorded as its EC50 is 16 nM

Given item Ac-[αAllylPro]D[Cha][B5(4)]DDAA[Phe(3-CF3)]S[PyrS2″][Phe(2-Cl)][Bta]Q-NH2 (staple 1-4, 4-11) [I-1119] , the value recorded as its EC50 is 26 nM

Given item Ac-[αAllylPro]D[Cha][B5(4)]DDAA[Phe(3-OMe)]S[PyrS2″][Phe(2-Cl)][Bta]Q-NH2 (staple 1-4, 4-11) [I-1118] , the value recorded as its EC50 is 24 nM

Given item Ac-[αAllylPro]D[Cha][B5(4)]DDLAFT[PyrS2″][Phe(2-Cl)][Bta]S-NH2 (staple 1-4, 4-11) [I-1150] , the value recorded as its EC50 is 12 nM

Given item Ac-[αAllylPro]D[Cha][B5(4)]DDLAFS[PyrS2″][Phe(2-Cl)][Bta]Q-NH2 (staple 1-4, 4-11) [I-1147] , the value recorded as its EC50 is 10 nM
